- system under test: native human MET on living cells (human, UniProt P08581 25-1390)
- Sequence (P08581 25-1390): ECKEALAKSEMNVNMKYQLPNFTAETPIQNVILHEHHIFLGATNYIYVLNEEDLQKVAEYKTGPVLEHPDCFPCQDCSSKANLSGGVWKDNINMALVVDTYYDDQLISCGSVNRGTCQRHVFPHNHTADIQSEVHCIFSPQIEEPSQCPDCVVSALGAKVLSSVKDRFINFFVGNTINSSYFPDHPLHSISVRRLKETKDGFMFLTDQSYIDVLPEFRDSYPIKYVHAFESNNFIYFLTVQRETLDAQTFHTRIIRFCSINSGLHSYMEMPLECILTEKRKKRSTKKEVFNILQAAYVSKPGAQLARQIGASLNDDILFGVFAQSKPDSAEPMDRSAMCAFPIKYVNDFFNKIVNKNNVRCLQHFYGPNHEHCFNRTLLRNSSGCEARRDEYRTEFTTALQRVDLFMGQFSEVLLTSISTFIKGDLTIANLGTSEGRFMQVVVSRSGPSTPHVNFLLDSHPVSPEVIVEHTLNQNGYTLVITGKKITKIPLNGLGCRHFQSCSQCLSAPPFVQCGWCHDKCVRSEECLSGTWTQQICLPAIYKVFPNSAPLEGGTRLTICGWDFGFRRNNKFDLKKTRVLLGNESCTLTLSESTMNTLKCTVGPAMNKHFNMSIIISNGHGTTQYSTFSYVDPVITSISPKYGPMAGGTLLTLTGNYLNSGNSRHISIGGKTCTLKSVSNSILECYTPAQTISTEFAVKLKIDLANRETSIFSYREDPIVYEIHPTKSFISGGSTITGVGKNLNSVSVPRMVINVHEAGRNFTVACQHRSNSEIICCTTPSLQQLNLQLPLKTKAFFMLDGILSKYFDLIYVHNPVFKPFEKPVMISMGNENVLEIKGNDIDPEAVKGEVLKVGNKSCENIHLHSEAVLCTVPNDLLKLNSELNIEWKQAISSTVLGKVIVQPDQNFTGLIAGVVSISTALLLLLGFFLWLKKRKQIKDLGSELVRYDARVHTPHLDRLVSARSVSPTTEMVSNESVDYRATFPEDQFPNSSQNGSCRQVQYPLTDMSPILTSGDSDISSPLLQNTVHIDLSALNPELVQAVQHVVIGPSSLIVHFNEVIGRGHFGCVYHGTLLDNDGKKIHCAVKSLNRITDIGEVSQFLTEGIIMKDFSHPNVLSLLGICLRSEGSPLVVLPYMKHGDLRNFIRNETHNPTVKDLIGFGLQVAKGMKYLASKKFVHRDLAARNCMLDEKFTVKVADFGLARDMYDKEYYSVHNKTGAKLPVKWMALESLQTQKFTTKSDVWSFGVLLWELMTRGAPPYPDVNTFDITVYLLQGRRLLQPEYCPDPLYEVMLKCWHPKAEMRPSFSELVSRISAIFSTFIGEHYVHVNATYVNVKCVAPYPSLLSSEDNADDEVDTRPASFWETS
- test description: cell-based or functional assay
property label: branches per spheroid, LOC cells, 12.5 nM (branches)
Answers are plain numbers, in branches.

// batch mode: one branches per spheroid, LOC cells, 12.5 nM value per listed entry
1. 71C3 chimeric llama-human IgG1 mAb (antibody, V domains shown, llama VH on human IgG1 CH1-CH2-CH3, llama VL on human lambda CL) VH: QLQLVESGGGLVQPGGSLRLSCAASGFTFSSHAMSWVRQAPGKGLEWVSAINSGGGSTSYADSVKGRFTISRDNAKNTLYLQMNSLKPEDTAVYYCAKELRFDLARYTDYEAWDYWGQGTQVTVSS VL: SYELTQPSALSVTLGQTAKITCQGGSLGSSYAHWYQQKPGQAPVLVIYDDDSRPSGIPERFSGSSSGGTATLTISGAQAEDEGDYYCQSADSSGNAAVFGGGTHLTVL
2. 74C8 chimeric llama-human IgG1 mAb (antibody, V domains shown, llama VH on human IgG1 CH1-CH2-CH3, llama VL on human lambda CL) VH: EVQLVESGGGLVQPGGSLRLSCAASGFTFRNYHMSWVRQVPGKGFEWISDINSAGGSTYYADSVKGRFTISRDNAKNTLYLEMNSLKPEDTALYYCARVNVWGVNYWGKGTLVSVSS VL: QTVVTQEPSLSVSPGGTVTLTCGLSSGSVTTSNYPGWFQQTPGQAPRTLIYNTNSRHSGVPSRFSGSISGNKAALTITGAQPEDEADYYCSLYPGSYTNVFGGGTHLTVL

1. 15.7
2. 18.7
